- tested_target: the molecule itself
- assay_summary: SEC
Reported stoichiometry N values follow for various proteins

protein	stoichiometry N
Bacillus subtilis Fur H132A (site 3 mutant) (natural protein, UniProt P54574 1-149, looked up) MENRIDRIKKQLHSSSYKLTPQREATVRVLLENEEDHLSAEDVYLLVKEKSPEIGLATVYRTLELLTELKVVDKINFGDGVSRYDLRKEGAAHFHHHLVCMECGAVDEIEEDLLEDVEEIIERDWKFKIKDARLTFHGICHRCNGKETE	2
Bacillus subtilis Fur (ferric uptake regulator), wild type (natural protein, UniProt P54574 1-149, looked up) MENRIDRIKKQLHSSSYKLTPQREATVRVLLENEEDHLSAEDVYLLVKEKSPEIGLATVYRTLELLTELKVVDKINFGDGVSRYDLRKEGAAHFHHHLVCMECGAVDEIEEDLLEDVEEIIERDWKFKIKDHRLTFHGICHRCNGKETE	2
Bacillus subtilis Fur H95A (site 2 mutant) (natural protein, UniProt P54574 1-149, looked up) MENRIDRIKKQLHSSSYKLTPQREATVRVLLENEEDHLSAEDVYLLVKEKSPEIGLATVYRTLELLTELKVVDKINFGDGVSRYDLRKEGAAHFAHHLVCMECGAVDEIEEDLLEDVEEIIERDWKFKIKDHRLTFHGICHRCNGKETE	2
